# System: HeLa Kyoto;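 note: synchronized HeLa Kyoto cells, proteins quantified by TMT10plex mass spectrometry, three biological replicates, mitosis taken 0.5 h after nocodazole release, G1/S directly after double thymidine block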
# TEST_SUMMARY: thermal stability score vs G1/S (z-score of summed log2 fold changes over temperatures); higher = more thermally stable than in G1/S
# TEST_SETTINGS: cell cycle stage: early G1 (4.5 h after nocodazole release)
Listed sequences paired with reported thermal stability score
OBSERVATION_TYPE: thermal stability score

[[record]]
sequence_input = "MDKVCAVFGGSRGIGRAVAQLMARKGYRLAVIARNLEGAKAAAGDLGGDHLAFSCDVAKEHDVQNTFEELEKHLGRVNFLVNAAGINRDGLLVRTKTEDMVSQLHTNLLGSMLTCKAAMRTMIQQQGGSIVNVGSIVGLKGNSGQSVYSASKGGLVGFSRALAKEVARKKIRVNVVAPGFVHTDMTKDLKEEHLKKNIPLGRFGETIEVAHAVVFLLESPYITGHVLVVDGGLQLIL [CBR4]"
observation_type = "thermal stability score"
recorded_value = 1.14

[[record]]
sequence_input = "MIEVVAELSRGPVFLAGEALECVVTVTNPLPPTATSASSEALAWASAQIHCQFHASESRVALPPPDSSQPDVQPDSQTVFLPHRGERGQCILSTPPKILFCDLRLDPGESKSYSYSEVLPIEGPPSFRGQSVKYVYKLTIGCQRVNSPITLLRVPLRVLVLTGLQDVRFPQDEAVAPSSPFLEEDEGGKKDSWLAELAGERLMAATSCRSLHLYNISDGRGKVGTFGIFKSVYRLGEDVVGTLNLGEGTVACLQFSVSLQTEERVQPEYQRRRGAGGVPSVSHVTHARHQESCLHTTRTSFSLPIPLSSTPGFCTAIVSLKWRLHFEFVTSREPGLVLLPPVEQPEPTTWTGPEQVPVDTFSWDLPIKVLPTSPTLASYAAPGPSTSTITI [RGP1]"
observation_type = "thermal stability score"
recorded_value = 0.0205

[[record]]
sequence_input = "MFIKGRAPRAPPRERRRATRGGLRQVVAPPRALGSTSRPHFRRASVCRRRCRKSGGLLAASRKMAAAAVNGAAGFSSSGPAATSGAVLQAATGMYEQLKGEWNRKSPNLSKCGEELGRLKLVLLELNFLPTTGTKLTKQQLILARDILEIGAQWSILRKDIPSFERYMAQLKCYYFDYKEQLPESAYMHQLLGLNLLFLLSQNRVAEFHTELERLPAKDIQTNVYIKHPVSLEQYLMEGSYNKVFLAKGNIPAESYTFFIDILLDTIRDEIAGCIEKAYEKILFTEATRILFFNTPKKMTDYAKKRGWVLGPNNYYSFASQQQKPEDTTIPSTELAKQVIEYARQLEMIV [PSMD8]"
observation_type = "thermal stability score"
recorded_value = -1.02

[[record]]
sequence_input = "MGLLDLCEEVFGTADLYRVLGVRREASDGEVRRGYHKVSLQVHPDRVGEGDKEDATRRFQILGKVYSVLSDREQRAVYDEQGTVDEDSPVLTQDRDWEAYWRLLFKKISLEDIQAFEKTYKGSEEELADIKQAYLDFKGDMDQIMESVLCVQYTEEPRIRNIIQQAIDAGEVPSYNAFVKESKQKMNARKRRAQEEAKEAEMSRKELGLDEGVDSLKAAIQSRQKDRQKEMDNFLAQMEAKYCKSSKGGGKKSALKKEKK [DNAJC9]"
observation_type = "thermal stability score"
recorded_value = -3.62

[[record]]
sequence_input = "MQAGKPILYSYFRSSCSWRVRIALALKGIDYKTVPINLIKDRGQQFSKDFQALNPMKQVPTLKIDGITIHQSLAIIEYLEEMRPTPRLLPQDPKKRASVRMISDLIAGGIQPLQNLSVLKQVGEEMQLTWAQNAITCGFNALEQILQSTAGIYCVGDEVTMADLCLVPQVANAERFKVDLTPYPTISSINKRLLVLEAFQVSHPCRQPDTPTELRA [GSTZ1]"
observation_type = "thermal stability score"
recorded_value = -2.37

[[record]]
sequence_input = "MAQESPKNSAAEIPVTSNGEVDDSREHSFNRDLKHSLPSGLGLSETQITSHGFDNTKEGVIEAGAFQGSPAPPLPSVMSPSRVAASRLAQQGSDLIVPAGGQRTQTKSGPVILADEIKNPAMEKLELVRKWSLNTYKCTRQIISEKLGRGSRTVDLELEAQIDILRDNKKKYENILKLAQTLSTQLFQMVHTQRQLGDAFADLSLKSLELHEEFGYNADTQKLLAKNGETLLGAINFFIASVNTLVNKTIEDTLMTVKQYESARIEYDAYRTDLEELNLGPRDANTLPKIEQSQHLFQAHKEKYDKMRNDVSVKLKFLEENKVKVLHNQLVLFHNAIAAYFAGNQKQLEQTLKQFHIKLKTPGVDAPSWLEEQ [ARFIP1]"
observation_type = "thermal stability score"
recorded_value = -0.0158

[[record]]
sequence_input = "MYTAIPQSGSPFPGSVQDPGLHVWRVEKLKPVPVAQENQGVFFSGDSYLVLHNGPEEVSHLHLWIGQQSSRDEQGACAVLAVHLNTLLGERPVQHREVQGNESDLFMSYFPRGLKYQEGGVESAFHKTSTGAPAAIKKLYQVKGKKNIRATERALNWDSFNTGDCFILDLGQNIFAWCGGKSNILERNKARDLALAIRDSERQGKAQVEIVTDGEEPAEMIQVLGPKPALKEGNPEEDLTADKANAQAAALYKVSDATGQMNLTKVADSSPFALELLISDDCFVLDNGLCGKIYIWKGRKANEKERQAALQVAEGFISRMQYAPNTQVEILPQGHESPIFKQFFKDWK [CAPG]"
observation_type = "thermal stability score"
recorded_value = 0.941

[[record]]
sequence_input = "MVLESTMVCVDNSEYMRNGDFLPTRLQAQQDAVNIVCHSKTRSNPENNVGLITLANDCEVLTTLTPDTGRILSKLHTVQPKGKITFCTGIRVAHLALKHRQGKNHKMRIIAFVGSPVEDNEKDLVKLAKRLKKEKVNVDIINFGEEEVNTEKLTAFVNTLNGKDGTGSHLVTVPPGPSLADALISSPILAGEGGAMLGLGASDFEFGVDPSADPELALALRVSMEEQRQRQEEEARRAAAASAAEAGIATTGTEDSDDALLKMTISQQEFGRTGLPDLSSMTEEEQIAYAMQMSLQGAEFGQAESADIDASSAMDTSEPAKEEDDYDVMQDPEFLQSVLENLPGVDPNNEAIRNAMGSLASQATKDGKKDKKEEDKK [PSMD4]"
observation_type = "thermal stability score"
recorded_value = -0.808

[[record]]
sequence_input = "MSSAPRSPTPRPRRMKKDESFLGKLGGTLARKRRAREVSDLQEEGKNAINSPMSPALVDVHPEDTQLEENEERTMIDPTSKEDPKFKELVKVLLDWINDVLVEERIIVKQLEEDLYDGQVLQKLLEKLAGCKLNVAEVTQSEIGQKQKLQTVLEAVHDLLRPRGWALRWSVDSIHGKNLVAILHLLVSLAMHFRAPIRLPEHVTVQVVVVRKREGLLHSSHISEELTTTTEMMMGRFERDAFDTLFDHAPDKLSVVKKSLITFVNKHLNKLNLEVTELETQFADGVYLVLLMGLLEDYFVPLHHFYLTPESFDQKVHNVSFAFELMLDGGLKKPKARPEDVVNLDLKSTLRVLYNLFTKYKNVE [PARVB]"
observation_type = "thermal stability score"
recorded_value = 0.418


Cited source for all entries: the supplement of paper PMC5998384
